Items are presented alongside their recorded melting point.
Measured Metric: melting point

compound=Nc1cnc(NCC2CCCCC2)nc1O reported_value="180 °C"
compound="CC1CC(=O)NN=C1c1ccc(N=CNc2ccc(C3=NNC(=O)CC3C)cc2)cc1 (stereo not given)" reported_value="306 to 308 °C"
compound=O=C(c1cccc2cc[nH]c12)N1CCN(c2cccc(C(F)(F)F)c2)CC1 reported_value="147 to 151 °C"
compound=Cc1nnc(SCc2nc(NCCCOc3cccc(CN4CCCCC4)c3)n(C)n2)s1 reported_value="63 °C"
compound="NC(=O)CN1C(=O)C[C@@H]2CCCC[C@@H]21 (relative stereo)" reported_value="145 to 146 °C"
compound="COCCn1nnc2cc3c(=O)n(C(C)Cn4nccn4)nnc3cc2c1=O (stereo not given)" reported_value="145 to 146 °C"
compound=CCCCNc1ccn2ncc(Br)c2n1 reported_value="94 to 95 °C"
compound=CCCCCCc1cc2c(=O)c(-c3ccc(OC)cc3)coc2cc1O reported_value="188 °C"
compound=COC(=O)C1=C(C)NC(C)=C(C(=O)OC)C1c1ccccc1-c1ccsc1 reported_value="164 to 166 °C"
compound=CCCCc1nc(SC)c(Br)n1Cc1ccc(-c2ccccc2S(=O)(=O)N=CN(C)C)cc1 reported_value="158 °C"
compound="CC(C)(C)OC(=O)N1CCCC(C2=C(C#N)C(c3cccc(C#N)c3Br)c3c[nH]nc3N2)C1 (stereo not given)" reported_value="238 °C"
compound=Cc1cccc(C(=O)NO)c1N(C)S(=O)(=O)c1ccc(OCCCNC(=O)c2cc3ccccc3[nH]2)cc1 reported_value="144 to 146 °C"
compound=COc1ccc(C(=O)Cc2c(Cl)cncc2Cl)c2c1OCCCCO2 reported_value="142 to 143 °C"
compound=Fc1ccc(Cn2c(NC3CCN(CCNC(=S)NCc4cccnc4)CC3)nc3ccccc32)cc1 reported_value="147 °C"
compound=CCCCCCSC(=O)CS(=O)(=O)Nc1c(C(C)C)cccc1C(C)C reported_value="81 to 83 °C"
compound="COC(=O)C1=CC(C(=O)OC)NC(=O)N1 (stereo not given)" reported_value="177 to 179 °C"
compound=OCc1cc(Cl)cc(CO)c1O reported_value="161 to 163 °C"
compound=O=C(Nc1ccccc1)C1=CCN(Cc2c[nH]c3ncccc23)CC1 reported_value="217 to 220 °C"
compound=c1ccc(N2CCN(c3nc4c(c(NC5CCCCC5)n3)SCC4)CC2)cc1 reported_value="174 to 175 °C"
compound="CC1SC(N2N=C(c3ccc([N+](=O)[O-])cc3)c3cc4c(cc3CC2C)OCO4)=NC1=O (stereo not given)" reported_value="213 to 214 °C"

---

Items are presented alongside their recorded melting point.
Measured Metric: melting point (°C)

sample_smiles=CC(C)(C)C(=O)NNc1cc(F)c(C#N)cc1F measured_metric="melting point" unit_info=°C reported_value=167
sample_smiles=CCCCNc1c(C(=O)OCC)cnc2[nH]ncc12 measured_metric="melting point" unit_info=°C reported_value=181
sample_smiles=O=C(CSc1ncc(-c2ccccc2)cn1)NC1CCN(Cc2ccc(Cl)c(Cl)c2)CC1 measured_metric="melting point" unit_info=°C reported_value=157

---

Items are presented alongside their recorded melting point.
Measured Metric: melting point

compound=CC#CCOc1cc(C=O)ccc1OC(F)F reported_value="46 to 47 °C"
compound=Cc1c(/C=C/C(=O)c2c[nH]c3ccccc23)ncn1C(c1ccccc1)(c1ccccc1)c1ccccc1 reported_value="240 to 242 °C"
compound=O=c1nc(-c2cccc(Cl)c2)c2cc(C3(c4ccc(Cl)cc4)OCCO3)ccc2[nH]1 reported_value="220 °C"
compound=Nc1ncccc1OCc1c(F)ccc(F)c1F reported_value="108 to 110 °C"
compound="NC(=S)NCCC(O)(c1ccc(F)cc1)c1ccccn1 (stereo not given)" reported_value="148 to 149 °C"
compound=O=C(O)Cc1ccc2c(c1)C(=O)c1cc(Cl)ccc1CO2 reported_value="169 to 171 °C"
compound=Cn1c(COc2cccc(C(=O)O)c2)nc2ccc(Oc3cccnc3)cc21 reported_value="240 to 245 °C"
compound=Cn1c(=O)c2c(NC(=O)C3CCCCC3)onc2n(C)c1=O reported_value="210 to 212 °C"
compound=C=CCC12CC(c3ccccc31)c1ccccc12 reported_value="42 to 43 °C"
compound=CCCCNC(=O)C(=O)NCCCCCO reported_value="136 to 137 °C"
compound=Cc1ccc(S(=O)(=O)N2CCC[C@H]2C(=O)N2c3ccc(Cl)c(Cl)c3C[C@@H]2C)cc1 reported_value="170 to 173 °C"
compound=O=C(Nc1ccc(F)c([N+](=O)[O-])c1)C(F)(F)F reported_value="70 to 75 °C"
compound=CCCCCCCOc1ccc(N=Nc2ccc([N+](=O)[O-])cc2)cc1 reported_value="82.3 to 83.2 °C"
compound=O=[N+]([O-])c1ccc(Cl)c(N=C2NCCCN2)c1 reported_value="189 to 191 °C"
compound=CCCCc1nc(SC)c(C(=O)OCC)n1Cc1cccc(-c2cccc(S(=O)(=O)NC#N)c2)c1 reported_value="112 °C"
compound=N#Cc1cc(NC(=O)c2cc3ccccc3s2)ccc1N1CCC(O)CC1 reported_value="224 to 225 °C"
compound=O=C1CCC(c2ccc(OCCCN3C(=O)c4ccccc4C3=O)c(Cl)c2)=NN1 reported_value="230 to 232 °C"
compound=Cn1cc(C(=O)O)c2cccc(F)c21 reported_value="225 to 227 °C"
compound="CCCCC(C(=O)O)c1cccc(C(=O)c2cc3ccsc3s2)c1 (stereo not given)" reported_value="131 °C"
compound=COc1ccc(CCc2c(Cl)cncc2Cl)c2cc(C#N)nn12 reported_value="208 to 209 °C"
compound=O=C(O)[C@H](CCc1ccccc1)NS(=O)(=O)c1ccc2c(c1)Cc1ccccc1O2 reported_value="138 to 142 °C"
compound="CCC(I)CCCC(F)(F)C(F)(F)C(F)(F)C(F)(F)C(F)(F)C(F)(F)C(F)(F)C(F)(F)F (stereo not given)" reported_value="46 to 47 °C"
compound="CCCCOCCOc1ccc(-c2cnc(N3CCC(C)C3)c(/C=C(\\C)C(=O)O)c2)cc1 (stereo not given)" reported_value="106 to 108 °C"
compound=Cc1nnc(-c2ccc3occ(C(=O)NCCC(N)=O)c3c2)o1 reported_value="242 to 243 °C"
compound=COc1ccc(OCC(F)(F)F)cc1N1CCN(CCCNC(=O)c2c(-c3ccccc3)noc2C)CC1 reported_value="125 °C"
compound=Cc1ccccc1NC(=O)CI reported_value="145 to 146 °C"
compound="Cc1ccc(COc2ccc(CC(NC(=O)c3cc4cc(-c5ccc(Cl)cc5)ccc4s3)C(=O)O)cc2)cc1 (stereo not given)" reported_value="208 °C"
compound="C#CCC1CCC(=O)C(C(=O)c2ccc(S(C)(=O)=O)cc2[N+](=O)[O-])C1=O (stereo not given)" reported_value="65 to 70 °C"
compound=c1ccc(Sc2cc(Sc3ccccc3)ncn2)cc1 reported_value="117 °C"
compound=CCCNC(=Nc1ccc(Cl)cc1)Nc1ncccc1OCc1c(F)cccc1F reported_value="99 to 100 °C"
compound=C=CS(=O)(=O)CCC(F)(F)C(F)(F)C(F)(F)C(F)(F)C(F)(F)C(F)(F)C(F)(F)C(F)(F)F reported_value="96 to 97 °C"
compound=Cc1nc2ccc(S(=O)(=O)n3c(COC(C)(C)C(=O)O)cc4cc(Cl)ccc43)cc2s1 reported_value="172 to 174 °C"
compound=N#Cc1cnc(NS(=O)(=O)c2cccc(Cl)c2Cl)c(OCc2cccnc2)n1 reported_value="222 to 224 °C"
compound=CSc1ccc(-c2cc(-c3nc4ccccc4c(=O)n3-c3cccc(C)c3)sc2N2CCOCC2)cc1 reported_value="220 to 221 °C"
compound=CN(C)S(=O)(=O)c1ccc2c(c1)CNc1ccccc1O2 reported_value="99 to 102 °C"
compound=CCc1sc2nc(C(=O)O)cn2c1C reported_value="243 to 245 °C"
compound=CCn1ncnc1COc1nn2c(-c3ccc(F)cc3)nncc2c1C(C)(C)C reported_value="190 °C"
compound=COC(=O)c1ccc(NS(C)(=O)=O)c(C=O)c1 reported_value="161 to 163 °C"
compound=COc1cc2c(cn1)CCC(=CN(C)C)C2=O reported_value="102 to 104 °C"
compound="CC1(C)c2ccc(CCN3CCN(c4noc5ccccc45)CC3)cc2C(C)(C)C1NS(C)(=O)=O (stereo not given)" reported_value="75 to 80 °C"

---

Measured Metric: melting point

compound=O=C(NCc1cccc(Br)c1)c1ccc2cnccc2n1 reported_value="112 to 113 °C"
compound=COc1cc(-c2ncnc(C(F)(F)F)c2C)c(F)cc1Cl reported_value="144 to 146 °C"
compound="CCCCCC(C)C(C)c1cc(O)c(CN2CCN(C)CC2)c(O)c1 (stereo unspecified)" reported_value="129 to 133 °C"
compound=N#Cc1ncc(Br)cc1Br reported_value="109 to 112 °C"
compound=Nc1nc2ccccc2c2c1nc(CCCOc1ccccc1)n2CCCCNC(=O)N1CCOCC1 reported_value="71.5 to 72.1 °C"
compound="CCCCc1ccc(C(=O)SCC2C(=O)OCC2c2ccccc2)cc1 (stereo unspecified)" reported_value="91 to 93 °C"
compound="CC(C)(C)C(NC(=O)c1ccc(Cl)cc1)Nc1c(Nc2cnc(F)c(Br)c2)c(=O)c1=O (stereo unspecified)" reported_value="249 to 252 °C"
compound="CN(C)CCSC(=O)c1c[nH]c(=S)n1C1CCc2c(F)cc(F)cc2C1 (stereo unspecified)" reported_value="204 to 206 °C"
compound=NNc1ccc(Cl)cc1Cl reported_value="90 to 91 °C"
compound=Nc1ccncc1C(=NO)c1ccccc1F reported_value="212 to 214 °C"
compound="CC(C)(C)C(NC(=O)c1cccc(Cl)c1)Nc1c(Nc2ccc(C(F)(F)F)nc2)c(=O)c1=O (stereo unspecified)" reported_value="226 to 227 °C"
